molecular target: Type II neuronal voltage-activated sodium channels (Rattus norvegicus, UniProt P04775); assay: cell-based; details: veratridine (100 μM)-induced, tetrodotoxin-sensitive uptake; CHO cells expressing rat brain Type II Na channels; read-out: IC50, block of ^14C guanidinium uptake
Sequence (P04775 whole entry): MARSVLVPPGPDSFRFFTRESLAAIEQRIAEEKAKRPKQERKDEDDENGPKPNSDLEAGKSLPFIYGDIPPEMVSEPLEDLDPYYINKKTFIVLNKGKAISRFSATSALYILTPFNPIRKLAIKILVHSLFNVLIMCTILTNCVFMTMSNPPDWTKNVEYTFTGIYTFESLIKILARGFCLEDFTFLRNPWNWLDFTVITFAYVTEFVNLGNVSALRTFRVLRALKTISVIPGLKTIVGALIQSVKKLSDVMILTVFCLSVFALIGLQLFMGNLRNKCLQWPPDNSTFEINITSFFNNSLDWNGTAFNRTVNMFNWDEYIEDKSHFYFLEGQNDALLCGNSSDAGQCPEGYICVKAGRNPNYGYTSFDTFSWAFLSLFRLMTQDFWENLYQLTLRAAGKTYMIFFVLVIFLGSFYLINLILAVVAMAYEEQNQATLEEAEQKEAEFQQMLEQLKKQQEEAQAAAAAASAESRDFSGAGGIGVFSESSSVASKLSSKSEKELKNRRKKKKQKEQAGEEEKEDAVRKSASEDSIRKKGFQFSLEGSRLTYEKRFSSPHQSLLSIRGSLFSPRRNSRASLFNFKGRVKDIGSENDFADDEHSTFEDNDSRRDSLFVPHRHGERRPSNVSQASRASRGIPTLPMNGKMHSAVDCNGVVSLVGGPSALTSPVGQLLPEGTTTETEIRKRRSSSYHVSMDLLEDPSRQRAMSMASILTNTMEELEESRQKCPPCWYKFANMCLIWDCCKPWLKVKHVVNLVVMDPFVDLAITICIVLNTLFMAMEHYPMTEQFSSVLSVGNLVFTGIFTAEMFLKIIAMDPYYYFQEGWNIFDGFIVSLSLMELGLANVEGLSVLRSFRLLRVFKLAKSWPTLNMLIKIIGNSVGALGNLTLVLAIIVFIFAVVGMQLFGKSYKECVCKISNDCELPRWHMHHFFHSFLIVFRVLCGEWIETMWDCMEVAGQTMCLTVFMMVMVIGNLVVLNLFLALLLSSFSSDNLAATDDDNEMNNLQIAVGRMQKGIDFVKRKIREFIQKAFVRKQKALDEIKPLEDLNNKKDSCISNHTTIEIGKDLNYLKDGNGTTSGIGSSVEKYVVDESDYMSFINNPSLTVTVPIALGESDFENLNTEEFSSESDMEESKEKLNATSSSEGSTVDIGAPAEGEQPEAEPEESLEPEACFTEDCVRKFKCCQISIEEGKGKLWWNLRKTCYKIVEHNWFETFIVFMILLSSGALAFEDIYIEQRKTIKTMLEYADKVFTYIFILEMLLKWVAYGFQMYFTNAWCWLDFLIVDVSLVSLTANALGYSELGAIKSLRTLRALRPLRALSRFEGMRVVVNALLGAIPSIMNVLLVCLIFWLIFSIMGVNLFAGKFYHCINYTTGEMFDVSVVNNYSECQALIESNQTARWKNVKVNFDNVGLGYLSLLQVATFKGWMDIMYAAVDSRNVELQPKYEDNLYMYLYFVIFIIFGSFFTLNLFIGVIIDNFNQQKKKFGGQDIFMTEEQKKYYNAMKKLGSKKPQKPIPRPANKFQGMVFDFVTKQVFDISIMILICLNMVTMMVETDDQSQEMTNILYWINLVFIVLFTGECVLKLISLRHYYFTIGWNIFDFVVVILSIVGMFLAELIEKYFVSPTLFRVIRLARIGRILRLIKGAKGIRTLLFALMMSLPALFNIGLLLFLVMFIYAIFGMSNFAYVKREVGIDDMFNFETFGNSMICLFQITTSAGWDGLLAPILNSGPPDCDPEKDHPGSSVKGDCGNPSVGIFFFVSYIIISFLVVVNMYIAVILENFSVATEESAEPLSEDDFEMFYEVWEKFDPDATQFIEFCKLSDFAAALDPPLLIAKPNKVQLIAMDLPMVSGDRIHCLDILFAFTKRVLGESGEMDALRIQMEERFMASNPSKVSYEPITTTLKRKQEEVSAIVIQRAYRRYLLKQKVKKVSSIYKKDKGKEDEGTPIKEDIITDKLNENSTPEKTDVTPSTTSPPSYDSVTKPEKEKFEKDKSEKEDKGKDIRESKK
Where a name gives a salt, the structure may show the parent alone.
result-type: pIC50
Kindly note that pIC50 refers to -log10 of the concentration in mol/L and answer with the value alone.

INSERT INTO results (compound, reported_measurement) VALUES
  ('CCC(C)c1ccc(NC(=N)Nc2ccc(C(C)CC)cc2)cc1 (centres unmarked) [Example 4, N,N′-bis(4-sec-Butylphenyl)guanidine.HCl]', 6.10),
  ('Cl.N=C(Nc1ccc(OCc2ccccc2)cc1)Nc1cccc(OCc2ccccc2)c1', 6.15);

Report pIC50, nothing else, for this compound: `CC(C)c1ccc(CN(C(=N)N)c2ccc(C3CCCCC3)cc2)cc1` 6.05

Report pIC50, nothing else, for this compound: `CC(C)(C)c1ccc(CN(C(=N)N)c2ccc3c(c2)CCC3)cc1` 6.15

----------
The entries below are paired with their reported melting point.
Counter-ions that a name gives are not always drawn.

Worked set:
INSERT INTO results (compound, reported_measurement) VALUES
  ('CCC(C)c1ccc(N(Cc2ccc(C(C)(C)C)cc2)C(=N)N)cc1 (stereo not drawn) (as salt: HCl)', '177 to 178 °C'),
  ('CCC(C)c1ccc(N(Cc2ccccc2)C(=N)N)cc1 (stereo not drawn)', '65 to 67 °C'),
  ('CCC(C)c1ccc(NC(=N)Nc2ccc(C(C)CC)cc2)cc1 (stereo not drawn) (as salt: HCl) [Example 4, N,N′-bis(4-sec-Butylphenyl)guanidine.HCl]', '113 to 115 °C'),
  ('CCC(C)c1ccc(N2CCCN(c3ccc(C(C)CC)cc3)C2=N)cc1 (stereo not drawn) (as salt: HBr)', '> 250 °C'),
  ('CC(C)c1ccc(CN(C(=N)N)c2ccc3c4c(cccc24)CC3)cc1', '153 to 155 °C');

Would you kindly look at the next entry?
Report melting point, nothing else, for this compound: N=C(Nc1ccc2c3c(cccc13)CC2)NC(c1ccccc1)c1ccccc1 (as salt: HCl) 225 to 227 °C

----------
system: L-type Ca channels; test: Inhibition of 45Ca uptake through L-type (dihydropyridine-sensitive) calcium channels in GH4C1 pituitary cells; type: cell-based; details: read-out: IC50, block of ^45Ca uptake, high K+ depolarization-induced 45Ca uptake
result-type: IC50
Phrase the answer as number then unit, nothing more needed.

Tell me IC50 of COc1ccc([C@@H]2Sc3ccccc3N(CCN(C)C)C(=O)[C@@H]2OC(C)=O)cc1 [diltiazem, reference compound] when tested on L-type Ca channels. 19.7 µM

----------
biological target: Type II neuronal voltage-activated sodium channels (Rattus norvegicus, UniProt P04775); test: cell-based; conditions: veratridine (100 μM)-induced, tetrodotoxin-sensitive uptake; CHO cells expressing rat brain Type II Na channels; read-out: IC50, block of ^14C guanidinium uptake
The entries below are paired with their reported pIC50.
Kindly note that pIC50 refers to -log10 of the concentration in mol/L and answer with the value alone.

Worked set:
INSERT INTO results (compound, reported_measurement) VALUES
  ('CC(C)(C)c1ccc(CN(C(=N)N)c2ccc3c(c2)Cc2ccccc2-3)cc1 [Example 22]', 6.30),
  ('N=C(Nc1ccc2c(c1)Cc1ccccc1-2)Nc1ccc2c(c1)Cc1ccccc1-2 [Example 12, N,N′-Bis(2-fluorenyl)guanidine.HBr]', 5.82),
  ('N=C(Nc1ccc2ccccc2c1)NC1C2CC3CC(C2)CC1C3 (stereo not shown) [Example 16]', 6.30);

Report pIC50, nothing else, for this compound: CC(C)(C)c1ccc(NC(=N)Nc2ccc(C(C)(C)C)cc2)cc1 [Example 13, N,N′-Bis(4-tort-butylphenyl)guanidine] 6.05

----------
Tested on: presynaptic Ca channels
Test: Inhibition of 45Ca uptake through presynaptic Ca channels in brain synaptosomes
Type: biochemical, mammalian
Conditions: high K+ depolarization-induced 45Ca uptake, read-out: IC50, block of ^45Ca uptake
Description: Compounds of the invention were tested to determine their ability to inhibit voltage-activated calcium channels in nerve terminals of mammalian brain. Said voltage-activated calcium channels directly control neurotransmitter release (see Nachsen, D. A. et al., J. Gen Physiol., 79:1065-1087 (1982)). […] The rapid component of ^45Ca uptake measured by this procedure is mediated by presynaptic calcium channels. […]
Structures can show the parent of a compound that is named as a salt.
result-type: IC50 (µM)
Return type: number; implicit unit µM.

INSERT INTO assay_data (compound, subject_of_test, reported_measurement) VALUES
  ('COc1ccc(NC(=N)Nc2ccc(Cl)c(Cl)c2Cl)c2ccccc12.Cl', 'presynaptic Ca channels', 1.7),
  ('CCC(C)c1ccc(NC(=N)Nc2ccc(C(C)CC)cc2)cc1 (stereo not shown) [Example 4, N,N′-bis(4-sec-Butylphenyl)guanidine.HCl]', 'presynaptic Ca channels', 11.2),
  ('Br.N=C(Nc1ccc2c3c(cccc13)-c1ccccc1-2)Nc1ccc2c3c(cccc13)-c1ccccc1-2 [Example 9, hydrobromide]', 'presynaptic Ca channels', 7.8);

Report IC50, nothing else, for this compound: `CC(C)(C)c1ccc(NC(=N)Nc2ccc(C(C)(C)C)cc2)cc1` 1.5

----------
The entries below are paired with their reported IC50.
test system: presynaptic Ca channels; experiment: Inhibition of 45Ca uptake through presynaptic Ca channels in brain synaptosomes; type: biochemical, mammalian; details: high K+ depolarization-induced 45Ca uptake, read-out: IC50, block of ^45Ca uptake
Phrase the answer as number then unit, nothing more needed.

INSERT INTO results (molecule, result_type, reported_measurement) VALUES
  ('CCC(C)c1ccc(N(Cc2ccc(C(C)(C)C)cc2)C(=N)N)cc1 (stereo not drawn)', 'IC50', '6.1 µM'),
  ('CC(C)(C)c1ccc(CN(C(=N)N)c2ccc3c4c(cccc24)CC3)cc1', 'IC50', '8.1 µM');

Report IC50, nothing else, for this molecule: CCC(C)c1ccc(N(C)C(=N)N(C)c2ccc(C(C)CC)cc2)cc1 (stereo not drawn) 5.9 µM

----------
biological target: Type II neuronal voltage-activated sodium channels (Rattus norvegicus); assay: cell-based; settings: veratridine (100 μM)-induced, tetrodotoxin-sensitive uptake; CHO cells expressing rat brain Type II Na channels; read-out: IC50, block of ^14C guanidinium uptake
result-type: pIC50
Kindly note that pIC50 refers to -log10 of the concentration in mol/L and answer with the value alone.

Worked set:
INSERT INTO measurements (chemical_structure, subject_of_test, result_type, reported_measurement) VALUES
  ('CC(C)(C)c1ccc(CN(C(=N)N)c2cccc(OC(F)(F)F)c2)cc1.Cl', 'Type II neuronal voltage-activated sodium channels (Rattus norvegicus)', 'pIC50', 5.92),
  ('CC(C)(C)c1ccc(CN(C(=N)N)c2ccc(C3CCCCC3)cc2)cc1', 'Type II neuronal voltage-activated sodium channels (Rattus norvegicus)', 'pIC50', 5.72);

Would you kindly look at the next entry?
Tell me pIC50 of `CC(C)c1ccc(NC(=N)Nc2ccc3ccccc3c2)cc1` when tested on Type II neuronal voltage-activated sodium channels (Rattus norvegicus). 6.05

----------
The entries below are paired with their reported IC50.
biological target: Type II neuronal voltage-activated sodium channels (Rattus norvegicus); assay: cell-based; conditions: veratridine (100 μM)-induced, tetrodotoxin-sensitive uptake; CHO cells expressing rat brain Type II Na channels; read-out: IC50, block of ^14C guanidinium uptake
Phrase the answer as number then unit, nothing more needed.

Worked set:
INSERT INTO assay_data (molecule, reported_measurement) VALUES
  ('Br.N=C(Nc1ccc2c3c(cccc13)-c1ccccc1-2)Nc1ccc2c3c(cccc13)-c1ccccc1-2 [Example 9, hydrobromide]', '700 nM'),
  ('CC(C)(C)c1ccc(CN(C(=N)N)c2ccc3c4c(cccc24)CC3)cc1', '1000 nM'),
  ('CC(C)(C)c1ccc(NC(=N)Nc2ccc(Cl)c(Cl)c2Cl)cc1.Cl', '1800 nM');

Would you kindly look at the next entry?
Report IC50, nothing else, for this molecule: `CCCCOc1ccc(N(Cc2ccc(C(C)(C)C)cc2)C(=N)N)cc1.Cl` 1800 nM

----------
Structures can show the parent of a compound that is named as a salt.
The entries below are paired with their reported melting point.

Report melting point, nothing else, for this compound: CCC(C)c1ccc(N(C)C(=N)N(C)c2ccc(C(C)CC)cc2)cc1 (stereo not drawn) (as salt: HCl) [Example 6] 65 to 66 °C

Report melting point, nothing else, for this compound: CC(C)(C)c1ccc(CN(C(=N)N)c2ccc(Cl)c3ccccc23)cc1 (as salt: HCl) [Example 49] 115 to 117 °C

Report melting point, nothing else, for this compound: CC(C)(C)c1ccc(CN(C(=N)N)c2cccc(I)c2)cc1 (as salt: HCl) [Example 48] 271 to 272 °C
